# EXPERIMENTAL PROTOCOL: Cytotoxic activity against […] BV2 cells assessed as cell viability at 5 uM incubated for 24 hrs by MTT assay (reference value: 100%)
# Type: cell-based, BV-2
# EXPERIMENTAL PARAMETERS: read-out: Activity
# reported viability at 24 h, 5 µM; entries follow
Give the value in % but do not write % after it.

Take a look at these entries with their results.
(Q) Entry C=C1[C@@H]2[C@H]3OC(=O)[C@@H](C)[C@@H]3C[C@@H](O)C(=C)[C@@H]2C[C@@H]1O[C@@H]1O[C@H](CO)[C@@H](O)[C@H](O)[C@H]1O has what viability at 24 h, 5 µM?
(A) 102

(Q) # viability at 24 h, 5 µM lookup, item C=C1C[C@@H](O)[C@@H]2[C@H](OC(=O)[C@H]2C)[C@H]2[C@H](C)[C@@H](O[C@@H]3O[C@H](CO)[C@@H](O)[C@H](O)[C@H]3O)C[C@@H]12
(A) 103

(Q) GET /values?readout=viability at 24 h, 5 µM&item= CC1=C2[C@H]3OC(=O)[C@@H](C)[C@@H]3CC[C@@]2(C)[C@H](O)CC1
(A) 110

(Q) Which viability at 24 h, 5 µM value is on record for C=C1C(=O)O[C@@H]2[C@H]3C(=C)[C@@H](O[C@@H]4O[C@H](CO)[C@@H](O)[C@H](O)[C@H]4O)C[C@H]3C(=C)C[C@@H](OC(=O)Cc3ccc(O)cc3)[C@@H]12 ?
(A) 106

(Q) For CNC(=N)NCCC[C@H](N)C(=O)O , what is its reported viability at 24 h, 5 µM?
(A) 112

(Q) Which viability at 24 h, 5 µM value belongs to C=C1[C@@H]2[C@H]3OC(=O)[C@@H](C)[C@@H]3[C@H](O)CC(=C)[C@@H]2C[C@@H]1O[C@@H]1O[C@H](CO)[C@@H](O)[C@H](O)[C@H]1O ?
(A) 106

(Q) Entry under review: C=C1C(=O)O[C@@H]2[C@H]3C(=C)[C@@H](O[C@@H]4O[C@H](CO)[C@@H](O)[C@H](O)[C@H]4O)C[C@H]3C(=C)C[C@@H](O)[C@@H]12 . Reported viability at 24 h, 5 µM?
(A) 104

(Q) State the recorded viability at 24 h, 5 µM for this entry: CC1=CC[C@@H](O[C@@H]2O[C@H](CO)[C@@H](O)[C@H](O)[C@H]2O)[C@]2(C)CC[C@@H]3[C@H](OC(=O)[C@H]3C)[C@@H]12
(A) 107

Others:
(Q) Give the measured viability at 24 h, 5 µM of C=C1C(=O)O[C@@H]2[C@H]3C(C)=C(O[C@@H]4O[C@H](CO)[C@@H](O)[C@H](O)[C@H]4O)C[C@H]3C(=C)C[C@@H](OC(=O)Cc3ccc(O)cc3)[C@@H]12 .
(A) 106

(Q) GET /values?readout=viability at 24 h, 5 µM&item= C=C1C[C@@H](O)[C@@H]2[C@H](OC(=O)[C@H]2C)[C@H]2C(C)=C(O[C@@H]3O[C@H](CO)[C@@H](O)[C@H](O)[C@H]3O)C[C@@H]12
(A) 108

(Q) Endpoint output: viability at 24 h, 5 µM of C=C1[C@@H]2[C@H]3OC(=O)C(=C)[C@@H]3C[C@@H](O)C(=C)[C@@H]2C[C@@H]1O[C@@H]1O[C@H](CO)[C@@H](O)[C@H](O)[C@H]1O . Value?
(A) 110

(Q) Could you share which viability at 24 h, 5 µM value was measured for C/C1=C\CC/C(CO[C@@H]2O[C@H](CO)[C@@H](O)[C@H](O)[C@H]2O)=C/[C@H]2OC(=O)[C@@H](C)[C@@H]2CC1 ?
(A) 113

###

# EXPERIMENTAL PROTOCOL: Cytotoxic activity against […] BV2 cells assessed as cell viability at 5 uM incubated for 24 hrs by MTT assay (reference value: 100%)
# Type: cell-based, BV-2
# EXPERIMENTAL PARAMETERS: read-out: Activity
PROPERTY MEASURED: viability at 24 h, 5 µM (%)
Write the value in % as a bare number.

(Q) May I ask what viability at 24 h, 5 µM has been recorded for C=C1C(=O)O[C@@H]2/C=C(\CO[C@@H]3O[C@H](CO)[C@@H](O)[C@H](O)[C@H]3O)CC/C=C(\C)CC[C@@H]12 ?
(A) 105

(Q) What measured viability at 24 h, 5 µM goes with C=C1C(=O)O[C@@H]2[C@H]3C(=C)[C@@H](O[C@@H]4O[C@H](CO)[C@@H](O)[C@H](O)[C@H]4O)C[C@H]3C(=C)C[C@@H](OC(=O)C(O)C(C)C)[C@@H]12 (stereo partly drawn) ?
(A) 105

In the following, a different molecule is considered.
(Q) Bench note: what viability at 24 h, 5 µM did C=C1[C@@H]2[C@H]3OC(=O)[C@@H](C)[C@@H]3CCC(=C)[C@@H]2C[C@@H]1O[C@@H]1O[C@H](CO)[C@@H](O)[C@H](O)[C@H]1O show?
(A) 116

###

Measured viability at 24 h, 20 µM, listed per entry for reference.
# EXPERIMENTAL PROTOCOL: Cytotoxic activity against […] BV2 cells assessed as cell viability at 20 uM incubated for 24 hrs by MTT assay (reference value: 100%)
# Assay type: cell-based, BV-2
# EXPERIMENTAL PARAMETERS: mouse, read-out: Activity
Numeric only. Scale: %

(Q) Dear colleague, I am looking for the recorded viability at 24 h, 20 µM of the following compound: C=C1[C@@H]2[C@H]3OC(=O)[C@@H](C)[C@@H]3CCC(=C)[C@@H]2C[C@@H]1O[C@@H]1O[C@H](CO)[C@@H](O)[C@H](O)[C@H]1O
(A) 116

(Q) Look up viability at 24 h, 20 µM: C=C1C(=O)O[C@@H]2[C@H]3C(=C)[C@@H](O[C@@H]4O[C@H](CO)[C@@H](O)[C@H](O)[C@H]4O)C[C@H]3C(=C)C[C@@H](OC(=O)C(O)C(C)C)[C@@H]12 (stereo not given in full)
(A) 97.5

(Q) Reported viability at 24 h, 20 µM, compound C=C1C(=O)O[C@@H]2[C@H]3C(=C)[C@@H](O[C@@H]4O[C@H](CO)[C@@H](O)[C@H](O)[C@H]4O)C[C@H]3C(=C)C[C@@H](O)[C@@H]12 : ____
(A) 103

(Q) Any idea what its viability at 24 h, 20 µM is? The compound is CC1=CC[C@@H](O[C@@H]2O[C@H](CO)[C@@H](O)[C@H](O)[C@H]2O)[C@]2(C)CC[C@@H]3[C@H](OC(=O)[C@H]3C)[C@@H]12
(A) 112

(Q) Name the recorded viability at 24 h, 20 µM for C=C1C(=O)O[C@@H]2/C=C(\CO[C@@H]3O[C@H](CO)[C@@H](O)[C@H](O)[C@H]3O)CC/C=C(\C)CC[C@@H]12 .
(A) 103

Continuing:
(Q) State the recorded viability at 24 h, 20 µM for this entry: CC1=C2[C@H]3OC(=O)[C@@H](C)[C@@H]3CC[C@@]2(C)[C@H](O)CC1
(A) 110

(Q) Sample C=C1C[C@@H](O)[C@@H]2[C@H](OC(=O)[C@H]2C)[C@H]2[C@H](C)[C@@H](O[C@@H]3O[C@H](CO)[C@@H](O)[C@H](O)[C@H]3O)C[C@@H]12 — what was its viability at 24 h, 20 µM?
(A) 103

(Q) Param item = C=C1C(=O)O[C@@H]2[C@H]3C(C)=C(O[C@@H]4O[C@H](CO)[C@@H](O)[C@H](O)[C@H]4O)C[C@H]3C(=C)C[C@@H](OC(=O)Cc3ccc(O)cc3)[C@@H]12 ; retrieve measured viability at 24 h, 20 µM.
(A) 103

(Q) What viability at 24 h, 20 µM value was documented for this compound, C=C1[C@@H]2[C@H]3OC(=O)[C@@H](C)[C@@H]3C[C@@H](O)C(=C)[C@@H]2C[C@@H]1O[C@@H]1O[C@H](CO)[C@@H](O)[C@H](O)[C@H]1O ?
(A) 114

###

# EXPERIMENTAL PROTOCOL: Cytotoxic activity against […] BV2 cells assessed as cell viability at 20 uM incubated for 24 hrs by MTT assay (reference value: 100%)
# Format: cell-based, BV-2
# EXPERIMENTAL PARAMETERS: mouse, read-out: Activity
PROPERTY MEASURED: viability at 24 h, 20 µM (%)
Return type: number; implicit unit %.

Known results for compounds:
(Q) Find the recorded viability at 24 h, 20 µM belonging to C=C1[C@@H]2[C@H]3OC(=O)[C@@H](C)[C@@H]3[C@H](O)CC(=C)[C@@H]2C[C@@H]1O[C@@H]1O[C@H](CO)[C@@H](O)[C@H](O)[C@H]1O and report it.
(A) 105

(Q) Recorded viability at 24 h, 20 µM of C/C1=C\CC/C(CO[C@@H]2O[C@H](CO)[C@@H](O)[C@H](O)[C@H]2O)=C/[C@H]2OC(=O)[C@@H](C)[C@@H]2CC1 , please.
(A) 107

(Q) Need viability at 24 h, 20 µM, item C=C1[C@@H]2[C@H]3OC(=O)C(=C)[C@@H]3C[C@@H](O)C(=C)[C@@H]2C[C@@H]1O[C@@H]1O[C@H](CO)[C@@H](O)[C@H](O)[C@H]1O
(A) 110

New cases:
(Q) Any idea what its viability at 24 h, 20 µM is? The compound is CNC(=N)NCCC[C@H](N)C(=O)O
(A) 108

(Q) Form field: reported viability at 24 h, 20 µM of C=C1C[C@@H](O)[C@@H]2[C@H](OC(=O)[C@H]2C)[C@H]2C(C)=C(O[C@@H]3O[C@H](CO)[C@@H](O)[C@H](O)[C@H]3O)C[C@@H]12
(A) 108

(Q) Requested read-out: viability at 24 h, 20 µM. Entry: C=C1C(=O)O[C@@H]2[C@H]3C(=C)[C@@H](O[C@@H]4O[C@H](CO)[C@@H](O)[C@H](O)[C@H]4O)C[C@H]3C(=C)C[C@@H](OC(=O)Cc3ccc(O)cc3)[C@@H]12
(A) 109
